Cited source for all entries: patent US7910600B2

Reported IC50 by item:
- Test system: BxPC3
- test-name: Cell proliferation assay (Alamar Blue), BxPC3
- Assay type: cell-based
- condition-notes: Homo sapiens, BXPC-3; BxPC3 cell line; read-out: Bx-PC3
- Method: A representative cell-proliferation assay protocol using Alamar Blue dye (stored at 4° C., use 20 ul per well) is described hereafter. 96-Well Plate Setup and Compound Treatment • a. Split and trypsinize cells. • b. Count cells using hemocytometer. • c. Plate 4,000-5,000 cells per well in 100 μl of medium and seed into a 96-well plate according to the following plate layout. […] • d. […] Record fluorescence at an excitation wavelength of 544 nm and emission wavelength of 590 nm using a microplate reader. […]

Known results for compounds:
{"columns": ["structure", "tested-on", "result"],
 "data": [
  ["CC(=O)Nc1cccc(-c2nc3cc(C(=O)O)ccc3c3cnccc23)c1", "BxPC3", "> 10 µM"],
  ["COC(=O)c1ccc2c(c1)nc(-c1cnn(C)c1)c1nc(NC3CC3)ncc12", "BxPC3", "> 30 µM"],
  ["O=C(O)c1ccc2c(c1)nc(-c1ccc(Cl)cc1)c1ccncc12", "BxPC3", "> 10 µM"],
  ["Nc1cccc(-c2nc3cc(C(=O)O)ccc3c3cnccc23)c1", "BxPC3", "> 10 µM"]
]}

Pending compound:
Problem: For the compound O=C(O)c1ccc2c(c1)nc(-c1cccc(Cl)c1)c1ccncc12 , give its measured IC50 value.
Result: > 10 µM
